Attribution: patent US20260042834A1

STUDY TARGET: T1, biotinylated CRH (human and mouse, not fully specified; biotinylated, position not stated)
T1 construct: also called Biotin-CRH; biotin-labeled CRH
T1 peptide: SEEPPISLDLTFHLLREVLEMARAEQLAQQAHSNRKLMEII
TEST METHOD NOTES: competitive ELISA, coated 1st mAb; competitor hIgG1
Measured % Inhibition of individual entries
REPORTED ENDPOINT: % Inhibition (%)

1. PR302064 (antibody, human IgG1, kappa, V domains shown, Humanized variant of PR301777) VH: EMQLVESGGGLVKPGGSLRLSCAASGFTFSNYWMNWVRQAPGKGLEWVAEIRLKSNNYATHYAESVKGRFTISRDDSKSTVYLQMNSLKTEDTAVYYCTVGTLVYWGQGTLVTVSS VL: DIVLTQSPDSLAVSLGERATINCRASQSVSTSTYNYMHWFQQKPGQPPKLLIKFASNLESGVPDRFSGSGSGTDFTLTISSLQAEDTAVYYCQHSWEIPYTFGQGTKLEIKR; 1
2. PR302055 (antibody, human IgG1, kappa, V domains shown, Humanized variant of PR301777) VH: EMQLVESGGGLVQPGGSLKLSCAASGFTFSNYWMNWVRQASGKGLEWVAEIRLKSNNYATHYAESVKGRFTISRDDSKSTVYLQMNSLKTEDTAVYYCTVGTLVYWGQGTLVTVSS VL: DIQLTQSPSSLSASVGDRVTITCRASQSVSTSTYNYMHWFQQKPGKAPKLLIKFASNLESGVPSRFSGSGSGTDFTLTISSLQPEDTATYYCQHSWEIPYTFGQGTKLEIKR; 2
3. PR302050 (antibody, human IgG1, kappa, V domains shown, Humanized variant of PR301777) VH: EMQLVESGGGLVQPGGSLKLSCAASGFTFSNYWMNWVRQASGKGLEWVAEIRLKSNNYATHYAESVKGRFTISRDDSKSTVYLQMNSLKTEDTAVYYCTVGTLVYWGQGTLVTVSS VL: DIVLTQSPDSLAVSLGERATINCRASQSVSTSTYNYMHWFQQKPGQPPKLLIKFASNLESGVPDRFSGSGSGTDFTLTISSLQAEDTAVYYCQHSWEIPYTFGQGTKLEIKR; 0
